- target_or_system: GAPDH-wt (UniProt P04406 1-335)
- Sequence (P04406 whole entry): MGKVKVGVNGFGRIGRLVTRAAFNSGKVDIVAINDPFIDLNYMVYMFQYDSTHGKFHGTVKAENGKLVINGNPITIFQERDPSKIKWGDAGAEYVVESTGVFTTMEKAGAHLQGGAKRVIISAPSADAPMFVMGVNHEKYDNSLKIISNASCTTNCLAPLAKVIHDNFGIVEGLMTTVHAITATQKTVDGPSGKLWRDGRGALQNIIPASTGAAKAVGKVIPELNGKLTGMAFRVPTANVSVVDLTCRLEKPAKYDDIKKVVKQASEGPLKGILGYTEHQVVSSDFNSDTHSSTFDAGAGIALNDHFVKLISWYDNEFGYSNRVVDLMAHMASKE
- experiment_summary: fluorescence anisotropy
pKd: −log10 of the molar value.
quantity_measured: pKd

binder="AAAAAAAAAAAAAAAAAAAA (ssRNA) [20A-RNA]" measurement=6.88
